Reported Ki values are given for each entry in this list.
assay: Displacement of [3H]-diprenorphine from opioid receptor in rat brain membrane homogenates after 1 hr by liquid scintillation counting; format: cell membranes

>  <chemicalString>
COC(=O)[C@@H]1[C@@H]2CCC[C@H]1NCC2

>  <units>
µM

>  <resultOperator>
=

>  <Ki>
17.1

$$$$
>  <chemicalString>
O=C(Oc1ccccc1)[C@@H]1[C@@H]2CCC[C@H]1NCC2

>  <units>
µM

>  <resultOperator>
=

>  <Ki>
10.9

$$$$
>  <chemicalString>
COC(=O)[C@@H]1[C@@H]2CCC[C@H]1N(CCc1ccccc1)CC2

>  <units>
µM

>  <resultOperator>
=

>  <Ki>
2.69

$$$$
>  <chemicalString>
O=C(O)[C@@H]1[C@@H]2CCC[C@H]1NCC2

>  <units>
µM

>  <resultOperator>
>

>  <Ki>
100

$$$$
>  <chemicalString>
COC(=O)[C@@H]1[C@@H]2CCC[C@H]1N(C(=O)[C@@H](N)Cc1ccccc1)CC2

>  <units>
µM

>  <resultOperator>
=

>  <Ki>
32.9

$$$$

Entry source: ChEMBL document CHEMBL3612028
